Test: Partition coefficient, log D by HPLC
Format: physicochemical
Conditions: octanol/water
Entries annotated with measured logD
I'd appreciate a reply containing only the number, no unit.

Known results for molecules:
1. CCNC(=O)c1cc2c(nc(C)n2C)c2c1CC[C@@H](c1ccccc1C)O2 ... 2.9
2. Cc1ccccc1[C@@H]1CCc2c(C(=O)N3CC(F)C3)cc3c(nc(C)n3C)c2O1 ... 3
3. CNC(=O)c1cc2c(nc(C)n2C)c2c1CC[C@@H](c1ccc(Cl)cc1C)O2 ... 3.1
4. CNC(=O)c1cc2c(nc(C)n2C)c2c1CC[C@@H](c1ccccc1)O2 ... 2.4
5. Cc1ccccc1[C@@H]1CCc2c(C(=O)NCC3CC3)cc3c(nc(C)n3C)c2O1 ... 3.3

Please fill in: logD reported for C#CCNC(=O)c1cc2c(nc(C)n2C)c2c1CC[C@@H](c1ccccc1C)O2 = 3.1

Reported logD for Cc1nc2c3c(c(C(=O)N(C)C)cc2n1C)CC[C@@H](c1ccccc1F)O3 was 2.7

Value of logD reported for the molecule Cc1nc2c3c(c(C(=O)N(C)C)cc2n1C)CC[C@@H](c1ccc(F)cc1)O3 is 2.7

The recorded logD for entry Cc1nc2c3c(c(C(=O)N(C)C)cc2n1C)CC[C@@H](c1ccc(F)cc1Cl)O3 equals 3

The molecule Cc1ccccc1[C@@H]1CCc2c(C(=O)N3CC(F)(F)C3)cc3c(nc(C)n3C)c2O1 showed logD equal to 3.3

---

Target: hERG (KCNH2) (Homo sapiens)
Sequence (Q12809 whole entry): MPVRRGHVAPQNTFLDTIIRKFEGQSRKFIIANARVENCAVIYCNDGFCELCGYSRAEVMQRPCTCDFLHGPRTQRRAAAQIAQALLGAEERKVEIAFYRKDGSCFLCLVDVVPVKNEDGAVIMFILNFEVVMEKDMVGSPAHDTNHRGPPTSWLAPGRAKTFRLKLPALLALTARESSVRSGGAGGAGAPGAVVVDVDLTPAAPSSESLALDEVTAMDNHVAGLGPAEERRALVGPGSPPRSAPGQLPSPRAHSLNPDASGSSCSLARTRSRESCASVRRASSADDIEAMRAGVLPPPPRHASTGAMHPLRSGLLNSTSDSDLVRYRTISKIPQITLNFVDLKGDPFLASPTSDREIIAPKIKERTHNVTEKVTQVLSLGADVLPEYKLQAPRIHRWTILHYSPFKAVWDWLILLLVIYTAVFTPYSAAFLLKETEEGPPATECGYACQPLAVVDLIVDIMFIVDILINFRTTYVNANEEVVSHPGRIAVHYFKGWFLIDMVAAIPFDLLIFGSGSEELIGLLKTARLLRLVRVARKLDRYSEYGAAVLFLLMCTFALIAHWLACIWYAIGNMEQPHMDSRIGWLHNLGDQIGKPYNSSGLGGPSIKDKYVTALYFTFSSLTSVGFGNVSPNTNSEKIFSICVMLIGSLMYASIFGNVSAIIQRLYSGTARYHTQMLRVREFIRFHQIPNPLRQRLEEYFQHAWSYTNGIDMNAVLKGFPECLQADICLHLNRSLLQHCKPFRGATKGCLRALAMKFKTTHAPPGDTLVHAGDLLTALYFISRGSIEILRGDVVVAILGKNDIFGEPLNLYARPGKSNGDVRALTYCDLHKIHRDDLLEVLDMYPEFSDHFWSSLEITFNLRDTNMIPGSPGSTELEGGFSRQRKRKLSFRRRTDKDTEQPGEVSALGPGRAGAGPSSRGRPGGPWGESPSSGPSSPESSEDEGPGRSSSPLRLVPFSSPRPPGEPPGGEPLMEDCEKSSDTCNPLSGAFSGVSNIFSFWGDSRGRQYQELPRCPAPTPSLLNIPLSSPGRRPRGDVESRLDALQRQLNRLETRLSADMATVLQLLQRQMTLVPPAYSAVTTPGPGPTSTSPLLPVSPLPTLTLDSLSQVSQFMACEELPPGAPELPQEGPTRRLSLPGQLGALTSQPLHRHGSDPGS
Assay: Inhibition of human ERG expressed in CHO-K1 cells at 10 uM by whole-cell patch clamp technique
Type: cell-based
Settings: CHO-K1 cells that express human ERG
Here, each record is paired with measured inhibition at 10 µM data.
Write the number in % without appending the unit.

1. Cc1ccccc1[C@@H]1CCc2c(C(=O)NC(C)C)cc3c(nc(C)n3C)c2O1 ... 30
2. Cc1nc2c3c(c(C(=O)N4CCC4)cc2n1C)CC[C@@H](c1ccccc1)O3 ... 18
3. Cc1ccccc1[C@@H]1CCc2c(C(=O)N3CC(C(=O)N(C)C)C3)cc3c(nc(C)n3C)c2O1 ... 6

So, Cc1nc2c3c(c(C(=O)N(C)C)cc2[nH]1)CC[C@@H](c1ccccc1C)O3 ? Its inhibition at 10 µM was 11

inhibition at 10 µM in this record for Cc1cc(F)ccc1[C@@H]1CCc2c(C(=O)N(C)C)cc3c(nc(C)n3C)c2O1 : 19

Memo: Cc1cc(Cl)ccc1[C@@H]1CCc2c(C(=O)N(C)C)cc3c(nc(C)n3C)c2O1 , reported inhibition at 10 µM: -6

Documented inhibition at 10 µM of Cc1ccccc1[C@@H]1CCc2c(C(=O)N(C)C)cc3c(nc(CO)n3C)c2O1 : 12

Quick note, inhibition at 10 µM for CCCNC(=O)c1cc2c(nc(C)n2C)c2c1CC[C@@H](c1ccccc1C)O2 landed at 66

Record summary for CNC(=O)c1cc2c(nc(C)n2C)c2c1CC[C@@H](c1ccc(Cl)cc1)O2 : reported inhibition at 10 µM = 68

Sample Cc1ccccc1[C@@H]1CCc2c(C(=O)N(C)C)cc3c(nc(C4CC4)n3C)c2O1 ; inhibition at 10 µM observed: 6

Noted for Cc1ccccc1[C@@H]1CCc2c(C(=O)N3CCOCC3)cc3c(nc(C)n3C)c2O1 : its inhibition at 10 µM reads 4

So, Cc1ccccc1[C@@H]1CCc2c(C(=O)N3CCC3)cc3c(nc(C)n3C)c2O1 ? Its inhibition at 10 µM was 14

For record Cc1ccccc1[C@@H]1CCc2c(C(N)=O)cc3c(nc(C)n3C)c2O1 the listed inhibition at 10 µM is 14

Entry CNC(=O)c1cc2c(nc(C)n2C)c2c1CC[C@@H](c1ccccc1)O2 ; inhibition at 10 µM = 26

---

Assay: Dissociation constant, pKa at pH 2.0 to 11.0 by potentiometric cosolvent titration
Format: physicochemical
Conditions: read-out: pKa
value.type: pKa
Provide a numeric answer; units are not to be included.

1. Cc1nc2c3c(c(C(=O)N(C)C)cc2n1C)CC[C@@H](c1ccccc1Cl)O3 ... 5.45
2. COCc1ccccc1[C@@H]1CCc2c(C(=O)N(C)C)cc3c(nc(C)n3C)c2O1 ... 5.61
3. Cc1nc2c3c(c(C(=O)N(C)C)cc2n1C)CC[C@@H](c1ccc(Cl)cc1Cl)O3 ... 5.36
4. Cc1nc2c3c(c(C(=O)N(C)C)cc2n1C)CC[C@@H](c1ccc(F)cc1)O3 ... 5.65
5. Cc1nc2c3c(c(C(=O)N(C)C)cc2n1C)CC[C@@H](c1ccc(Cl)cc1)O3 ... 5.59
6. Cc1cc(Cl)ccc1[C@@H]1CCc2c(C(=O)N3CCC3)cc3c(nc(C)n3C)c2O1 ... 5.49

Entry under test: COC1CN(C(=O)c2cc3c(nc(C)n3C)c3c2CC[C@@H](c2ccc(Cl)cc2C)O3)C1 . Its pKa was 5.48

Reported pKa of CNC(=O)c1cc2c(nc(C)n2C)c2c1CC[C@@H](c1ccc(Cl)cc1C)O2 : 5.6

# pKa (molecule: Cc1ccccc1[C@@H]1CCc2c(C(=O)N(C)C)cn3c(C)c(C)nc3c2O1 ) is 7.15

---

Experiment: Inhibition of H+/K+ ATPase in hog gastric mucosa by malachite green based competitive binding assay
Assay type: tissue-based, Sus scrofa
value.type: pIC50
The answer should be written as a number, with no unit following it.

1. CC(=O)CNC(=O)c1cc2c(nc(C)n2C)c2c1CC[C@@H](c1ccccc1C)O2 ... 4.6
2. COCCNC(=O)c1cc2c(nc(C)n2C)c2c1CC[C@@H](c1ccccc1C)O2 ... 4.9
3. CSCCNC(=O)c1cc2c(nc(C)n2C)c2c1CC[C@@H](c1ccccc1C)O2 ... 4.8
4. COCCN(C)C(=O)c1cc2c(nc(C)n2C)c2c1CC[C@@H](c1ccccc1C)O2 ... 4.9
5. Cc1ccccc1[C@@H]1CCc2c(C(=O)NC3CC3)cc3c(nc(C)n3C)c2O1 ... 4.9

Input Cc1nc2c3c(c(C(=O)N(C)C)cc2n1C)CC[C@@H](c1ccccc1F)O3 . Output pIC50: 4.9

Memo: COCc1cc2c(nc(C)n2C)c2c1CC[C@@H](c1ccccc1C)O2 , reported pIC50: 5.1

// COC1CN(C(=O)c2cc3c(nc(C)n3C)c3c2CC[C@@H](c2ccccc2C)O3)C1 : pIC50 value = 5.2

What the record says about Cc1nc2c3c(c(C(=O)N4CCC4)cc2n1C)CC[C@@H](c1ccc(Cl)cc1)O3 : pIC50 is 5.3

The measured pIC50 associated with Cc1sccc1[C@@H]1CCc2c(C(=O)N(C)C)cc3c(nc(C)n3C)c2O1 reads 6.3

For reference, reported pIC50 for Cc1cc(Cl)ccc1[C@@H]1CCc2c(C(=O)N3CCC3)cc3c(nc(C)n3C)c2O1 stands at 5.2

The value of pIC50 measured for the compound Cc1nc2c3c(c(C(=O)N(C)C)cc2n1C)CC[C@@H](c1ccc(F)cc1Cl)O3 turned out to be 5.4

pIC50 in this record for COC1(C)CN(C(=O)c2cc3c(nc(C)n3C)c3c2CC[C@@H](c2ccccc2C)O3)C1 : 4.3

---

Assay: Clearance in Beagle dog fistula model
Assay type: ADME, organism-based, Canis lupus familiaris
Details: in vivo
value.type: clearance (mL/min/kg)
The reply should be a number in mL/min/kg, with the unit left off.

Entry Cc1ccccc1[C@@H]1CCc2c(C(=O)N(C)C)cc3c(nc(C)n3C)c2O1 ; clearance = 4.67

---

Assay: Dissociation constant, pKa at pH 2.0 to 11.0 by potentiometric cosolvent titration
Type: physicochemical
Conditions: read-out: pKa
Quick reference: pKa of the listed items.

Example entries and their recorded answers appear below.
1. Cc1sccc1[C@@H]1CCc2c(C(=O)N(C)C)cc3c(nc(C)n3C)c2O1 ... 5.66
2. Cc1nc2c3c(c(C(=O)N(C)C)cc2n1C)CC[C@@H](c1ccc2ccccc2c1)O3 ... 5.57
3. Cc1ccccc1[C@@H]1CCc2c(C(=O)N(C)C)cc3c(nc(C4CC4)n3C)c2O1 ... 5.28
4. Cc1cc(Cl)ccc1[C@@H]1CCc2c(C(=O)N(C)C)cc3c(nc(C)n3C)c2O1 ... 5.59
5. Cc1nc2c3c(c(C(=O)N(C)C)cc2n1C)CC[C@@H](c1ccccc1C1CC1)O3 ... 5.63

Item: Cc1nc2c3c(c(C(=O)N(C)C)cc2n1C)CC[C@@H](c1ccccc1F)O3 | pKa: 5.55

Given item Cc1nc2c3c(c(C(=O)N(C)C)cc2[nH]1)CC[C@@H](c1ccccc1C)O3 , the value recorded as its pKa is 5.66
